meta.source: the CheMixHub drug solubility set

# solubility (g/100 g solution) per record follows
assay: xn = mol fraction of the nth substance listed, in the solute-free solvent; conditions: 308.15 K; x2 = 0.9
quantity-name: solubility (g/100 g solution)

molecule | quantity-name | observed
Cc1nc(C)c(C)nc1C + CCCCO + CC#N | solubility (g/100 g solution) | 47.9
Cl.NC(C=O)C(O)C(O)C(O)CO (centres undefined) + O + CO | solubility (g/100 g solution) | 22.9
Cl.NC(C=O)C(O)C(O)C(O)CO (centres undefined) + O + CCO | solubility (g/100 g solution) | 19
Cc1nc(C)c(C)nc1C + CO + CC#N | solubility (g/100 g solution) | 65.3

---

test: xn = mol fraction of the nth substance listed, in the solute-free solvent; settings: 303.15 K; x2 = 0.1
solubility (g/100 g solution) vs 0.3: at or above is Met, below is Not met.

molecule | label-value
O=CC(O)C(O)C(O)CO (stereo unspecified) + CO + ClCCl | Not met
Cc1nc(C)c(C)nc1C + CO + CC#N | Met
O=CC(O)C(O)C(O)CO (stereo unspecified) + CCO + CCCCCC | Not met
Cc1nc(C)c(C)nc1C + CCCCO + CC#N | Met
O=CC(O)C(O)C(O)CO (stereo unspecified) + CC(C)O + CCCCCC | Not met
O=CC(O)C(O)C(O)CO (stereo unspecified) + CCO + ClCCl | Met

---

# solubility (g/100 g solution) per record follows
assay: xn = mol fraction of the nth substance listed, in the solute-free solvent; conditions: 323.15 K; x2 = 0.8

molecule | solubility (g/100 g solution)
O=c1cc(-c2ccccc2)oc2cc(O)c(O)c(O)c12 + CCO + O | 1.27
O=CC(O)C(O)C(O)CO (stereo not given) + CC(C)O + CCCCCC | 4
Cl.NC(C=O)C(O)C(O)C(O)CO (stereo not given) + O + CCO | 16.1
O=CC(O)C(O)C(O)CO (stereo not given) + CCO + CCCCCC | 6.76
Cl.NC(C=O)C(O)C(O)C(O)CO (stereo not given) + O + CO | 21.3

---

assay: xn = mol fraction of the nth substance listed, in the solute-free solvent; settings: 298.15 K; x2 = 0.7
solubility (g/100 g solution) vs 6: at or above is 1, below is 0.

compound | label-value
O=CC(O)C(O)C(O)CO (stereo not given) + CO + ClCCl | 1
O=CC(O)C(O)C(O)CO (stereo not given) + CCO + ClCCl | 0
Cc1nc(C)c(C)nc1C + CO + CC#N | 1
Cl.NC(C=O)C(O)C(O)C(O)CO (stereo not given) + O + CCO | 0
Cc1nc(C)c(C)nc1C + CCCCO + CC#N | 1

---

assay: xn = mol fraction of the nth substance listed, in the solute-free solvent; conditions: 293.15 K; x2 = 0.2
solubility (g/100 g solution) vs 0.5: at or above is class 1, below is class 0.

molecule | label-value
O=CC(O)C(O)C(O)CO (stereo not drawn) + CC(C)O + CCCCCC | class 0
O=c1cc(-c2ccccc2)oc2cc(O)c(O)c(O)c12 + CCO + O | class 0
Cc1nc(C)c(C)nc1C + CCCCO + CC#N | class 1
O=CC(O)C(O)C(O)CO (stereo not drawn) + CCO + ClCCl | class 1
Cl.NC(C=O)C(O)C(O)C(O)CO (stereo not drawn) + O + CO | class 1
Cc1nc(C)c(C)nc1C + CO + CC#N | class 1
O=CC(O)C(O)C(O)CO (stereo not drawn) + CO + ClCCl | class 1
O=CC(O)C(O)C(O)CO (stereo not drawn) + CCO + CCCCCC | class 0
